Exercise: for every item that follows, state its recorded MIC.
- Test system: Staphylococcus
- assayOverview: Antibacterial activity against methicillin-resistant coagulase negative Staphylococcus by agar dilution method
- Assay type: functional
Please state the figure in µg/mL; there is no need to write the unit.

Q) Notebook: pull reported MIC for Staphylococcus, entry "N#CCC1=CCN(c2ccc(N3C[C@H](Cn4ccnn4)OC3=O)cc2F)CC1"
A) 3.12

Q) Recall the recorded MIC for "COC(=O)C=C1CCN(c2ccc(N3C[C@H](Cn4ccnn4)OC3=O)cc2F)CC1" with Staphylococcus and state it.
A) 3.12

Q) Param readout= MIC; system= Staphylococcus; entry= "N#CC1=CCN(c2ccc(N3C[C@H](Cn4ccnn4)OC3=O)cc2F)CC1" ; returns value.
A) 3.12

Q) Field: MIC (Staphylococcus). Entry: "CCOC(=O)CC1=CCN(c2ccc(N3C[C@H](Cn4ccnn4)OC3=O)cc2F)CC1"
A) 6.25

Q) What value of MIC on Staphylococcus does "CC(=O)NC[C@H]1CN(c2ccc(N3CCC(=CC#N)CC3)c(F)c2)C(=O)O1" have?
A) 3.12

Q) Form entry - test system: Staphylococcus; read-out: MIC; compound: "N#CCC1=CCN(c2ccc(N3C[C@H](Cn4cc(F)nn4)OC3=O)cc2F)CC1"
A) 100

Q) Fill in the recorded MIC for this compound, with Staphylococcus as test system: "CCOC(=O)C(C)=C1CCN(c2ccc(N3C[C@H](Cn4cc(F)nn4)OC3=O)cc2F)CC1"
A) 100

Q) Query for Staphylococcus: what MIC does the record show for "CCOC(=O)C=C1CCN(c2ccc(N3C[C@H](Cn4cc(F)nn4)OC3=O)cc2F)CC1" ?
A) 100

Q) I'm curious: which MIC was measured for "N#CC1=CCN(c2ccc(N3C[C@H](Cn4cc(F)nn4)OC3=O)cc2F)CC1" tested on Staphylococcus?
A) 100

Q) Checklist item: MIC tested on Staphylococcus, entry "CC(=O)NC[C@H]1CN(c2ccc(N3CCOCC3)c(F)c2)C(=O)O1" , value?
A) 3.12

Q) Entry "CCOC(=O)C(C)=C1CCN(c2ccc(N3C[C@H](Cn4ccnn4)OC3=O)cc2F)CC1" , system Staphylococcus: what MIC was measured?
A) 12.5
